# Test target: T1, human GITR (amino acids M1-V241, NCBI Accession #NP_004186.1) expressed on cells (human, UniProt Q9Y5U5 26-241)
# T1 sequence: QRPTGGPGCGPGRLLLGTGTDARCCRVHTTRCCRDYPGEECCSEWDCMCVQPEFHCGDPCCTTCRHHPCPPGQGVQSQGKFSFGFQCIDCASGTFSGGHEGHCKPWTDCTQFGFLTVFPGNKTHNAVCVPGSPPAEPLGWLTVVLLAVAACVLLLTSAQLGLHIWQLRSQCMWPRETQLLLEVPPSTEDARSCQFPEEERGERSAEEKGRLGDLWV
# Measurement notes: cell-based or functional assay
Measure: fold activation, T-cell proliferation, 33 nM, FcgR anchored, donor 5 (fold)

{"columns": ["Binder", "Reported"],
 "data": [
  ["H4H14521P (antibody, human IgG4, V domains shown, human IgG4 (H4H)) VH: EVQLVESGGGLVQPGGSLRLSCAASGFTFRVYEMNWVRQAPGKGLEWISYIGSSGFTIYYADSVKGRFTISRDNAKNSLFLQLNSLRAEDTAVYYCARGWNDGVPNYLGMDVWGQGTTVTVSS VL: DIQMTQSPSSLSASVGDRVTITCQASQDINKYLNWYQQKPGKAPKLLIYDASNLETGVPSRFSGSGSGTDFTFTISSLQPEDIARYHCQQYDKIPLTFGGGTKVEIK", 0.9],
  ["H4H14469P (antibody, human IgG4, V domains shown, human IgG4 (H4H)) VH: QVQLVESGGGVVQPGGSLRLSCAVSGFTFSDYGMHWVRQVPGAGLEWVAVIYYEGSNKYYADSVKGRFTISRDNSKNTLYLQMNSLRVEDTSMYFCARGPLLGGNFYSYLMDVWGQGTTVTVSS VL: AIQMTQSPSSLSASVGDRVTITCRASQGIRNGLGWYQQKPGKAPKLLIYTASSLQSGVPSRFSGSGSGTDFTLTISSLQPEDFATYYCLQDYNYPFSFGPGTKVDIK", 1.5],
  ["H4H14470P (antibody, human IgG4, V domains shown, human IgG4 (H4H)) VH: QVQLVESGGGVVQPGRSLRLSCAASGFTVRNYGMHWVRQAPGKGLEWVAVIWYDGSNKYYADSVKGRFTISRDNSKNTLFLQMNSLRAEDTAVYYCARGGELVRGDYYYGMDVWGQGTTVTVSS VL: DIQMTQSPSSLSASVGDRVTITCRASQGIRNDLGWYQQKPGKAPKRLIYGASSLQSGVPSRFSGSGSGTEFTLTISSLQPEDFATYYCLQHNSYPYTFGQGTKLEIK", 2],
  ["H4H14528P (antibody, human IgG4, V domains shown, human IgG4 (H4H)) VH: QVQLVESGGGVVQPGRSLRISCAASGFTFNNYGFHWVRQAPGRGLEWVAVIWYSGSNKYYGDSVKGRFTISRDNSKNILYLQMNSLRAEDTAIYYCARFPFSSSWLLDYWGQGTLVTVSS VL: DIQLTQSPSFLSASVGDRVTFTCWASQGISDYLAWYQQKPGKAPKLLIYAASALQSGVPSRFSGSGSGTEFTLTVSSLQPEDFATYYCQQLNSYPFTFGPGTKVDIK", 1.7],
  ["H4H14475P (antibody, human IgG4, V domains shown, human IgG4 (H4H)) VH: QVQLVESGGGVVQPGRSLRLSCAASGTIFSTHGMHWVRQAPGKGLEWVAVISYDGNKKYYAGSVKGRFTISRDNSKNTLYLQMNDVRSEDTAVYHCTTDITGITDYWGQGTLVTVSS VL: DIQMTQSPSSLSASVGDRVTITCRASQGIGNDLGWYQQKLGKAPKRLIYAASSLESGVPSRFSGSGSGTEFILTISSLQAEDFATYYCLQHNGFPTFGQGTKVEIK", 1.5]
]}
